# GI50 per entry
- assay-target: EGFR L858R/C797S Ba/F3 cells (Homo sapiens, UniProt P00533, C797S/L858R, cells depend on it)
- Sequence (P00533 whole entry C797S/L858R): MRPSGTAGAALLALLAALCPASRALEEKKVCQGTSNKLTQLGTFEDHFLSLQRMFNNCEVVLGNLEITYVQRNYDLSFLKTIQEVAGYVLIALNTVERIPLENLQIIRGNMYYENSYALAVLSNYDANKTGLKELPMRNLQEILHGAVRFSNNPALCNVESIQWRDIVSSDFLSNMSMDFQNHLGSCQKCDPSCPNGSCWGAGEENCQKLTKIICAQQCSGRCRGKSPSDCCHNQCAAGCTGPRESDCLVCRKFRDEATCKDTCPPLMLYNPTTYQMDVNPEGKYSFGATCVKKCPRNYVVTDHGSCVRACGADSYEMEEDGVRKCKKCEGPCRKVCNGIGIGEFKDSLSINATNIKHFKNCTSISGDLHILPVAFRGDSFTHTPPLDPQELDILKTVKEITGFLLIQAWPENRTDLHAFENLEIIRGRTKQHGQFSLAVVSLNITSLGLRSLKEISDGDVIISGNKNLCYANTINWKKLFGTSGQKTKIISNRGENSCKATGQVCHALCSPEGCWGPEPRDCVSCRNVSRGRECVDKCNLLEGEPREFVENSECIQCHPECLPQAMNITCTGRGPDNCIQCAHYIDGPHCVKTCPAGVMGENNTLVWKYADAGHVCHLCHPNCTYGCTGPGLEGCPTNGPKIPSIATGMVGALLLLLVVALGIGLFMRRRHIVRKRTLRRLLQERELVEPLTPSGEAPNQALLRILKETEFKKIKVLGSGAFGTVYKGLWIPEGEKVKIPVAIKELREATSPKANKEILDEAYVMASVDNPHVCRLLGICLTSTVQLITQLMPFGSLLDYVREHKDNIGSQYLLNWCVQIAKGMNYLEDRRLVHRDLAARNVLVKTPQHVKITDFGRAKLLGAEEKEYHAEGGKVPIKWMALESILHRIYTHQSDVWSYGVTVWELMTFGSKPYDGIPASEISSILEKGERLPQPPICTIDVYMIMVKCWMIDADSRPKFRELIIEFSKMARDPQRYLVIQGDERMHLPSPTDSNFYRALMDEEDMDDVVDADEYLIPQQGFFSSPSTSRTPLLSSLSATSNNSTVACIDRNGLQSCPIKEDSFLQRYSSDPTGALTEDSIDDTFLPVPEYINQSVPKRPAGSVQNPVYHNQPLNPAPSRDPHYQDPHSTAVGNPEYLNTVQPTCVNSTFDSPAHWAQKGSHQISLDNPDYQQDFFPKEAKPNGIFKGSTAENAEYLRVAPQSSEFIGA
- measurement-description: Ba/F3 cell proliferation (Cell Titer Glo), EGFR L858R/C797S
- Type: cell-based, murine
- applied-conditions: 72 hours, Table 6

[
  {
    "compound": "C=CC(=O)N1CCC(N2Cc3cnc(Nc4ccc(N5CCN(C)CC5)cc4)nc3N(C)C2=O)CC12CCC2 (stereo not shown)",
    "GI50": "≥ 2500 nM"
  }
]

Fill in: GI50 of C=CC(=O)N1CCC(N2Cc3cnc(Nc4ccc(CN5CCN(C)CC5)c(Cl)c4)nc3N(C)C2=O)c2ccccc21 (stereo not shown) is ___
< 100 nM

Record: C=CC(=O)N1CCC(N2Cc3cnc(Nc4ccc(N5CCN(C)CC5)cc4)nc3N(CC(F)F)C2=O)c2cccc(OC)c21 (stereo not shown)
100 to 500 nM

Record: C=C(CN1CCC(N2Cc3cnc(Nc4ccc(N5CCN(C)CC5)cc4)nc3N(C)C2=O)C1)C(=O)O (stereo not shown)
≥ 2500 nM

Record: [2H]C1(N2Cc3cnc(Nc4ccc(N5CCN(C)CC5)cc4)nc3N(C)C2=O)CCN(C(=O)C=C)c2c(OC)cccc21 (stereo not shown)
100 to 500 nM

Record: C=CC(=O)N1CCC(N2Cc3cnc(Nc4ccc(N(C)CCN(C)C)c(C(F)(F)F)c4)nc3N(C)C2=O)c2ccccc21 (stereo not shown)
< 100 nM

Record: [2H]C1(N2Cc3cnc(Nc4cnn(CCO)c4)nc3N(C3CC3)C2=O)CCN(C(=O)C(=C)F)c2ccccc21 (stereo not shown)
100 to 500 nM

###

- assay-target: EGFR mutant L858R Ba/F3 cells (Homo sapiens, UniProt P00533, L858R, cells depend on it)
- Sequence (P00533 whole entry L858R): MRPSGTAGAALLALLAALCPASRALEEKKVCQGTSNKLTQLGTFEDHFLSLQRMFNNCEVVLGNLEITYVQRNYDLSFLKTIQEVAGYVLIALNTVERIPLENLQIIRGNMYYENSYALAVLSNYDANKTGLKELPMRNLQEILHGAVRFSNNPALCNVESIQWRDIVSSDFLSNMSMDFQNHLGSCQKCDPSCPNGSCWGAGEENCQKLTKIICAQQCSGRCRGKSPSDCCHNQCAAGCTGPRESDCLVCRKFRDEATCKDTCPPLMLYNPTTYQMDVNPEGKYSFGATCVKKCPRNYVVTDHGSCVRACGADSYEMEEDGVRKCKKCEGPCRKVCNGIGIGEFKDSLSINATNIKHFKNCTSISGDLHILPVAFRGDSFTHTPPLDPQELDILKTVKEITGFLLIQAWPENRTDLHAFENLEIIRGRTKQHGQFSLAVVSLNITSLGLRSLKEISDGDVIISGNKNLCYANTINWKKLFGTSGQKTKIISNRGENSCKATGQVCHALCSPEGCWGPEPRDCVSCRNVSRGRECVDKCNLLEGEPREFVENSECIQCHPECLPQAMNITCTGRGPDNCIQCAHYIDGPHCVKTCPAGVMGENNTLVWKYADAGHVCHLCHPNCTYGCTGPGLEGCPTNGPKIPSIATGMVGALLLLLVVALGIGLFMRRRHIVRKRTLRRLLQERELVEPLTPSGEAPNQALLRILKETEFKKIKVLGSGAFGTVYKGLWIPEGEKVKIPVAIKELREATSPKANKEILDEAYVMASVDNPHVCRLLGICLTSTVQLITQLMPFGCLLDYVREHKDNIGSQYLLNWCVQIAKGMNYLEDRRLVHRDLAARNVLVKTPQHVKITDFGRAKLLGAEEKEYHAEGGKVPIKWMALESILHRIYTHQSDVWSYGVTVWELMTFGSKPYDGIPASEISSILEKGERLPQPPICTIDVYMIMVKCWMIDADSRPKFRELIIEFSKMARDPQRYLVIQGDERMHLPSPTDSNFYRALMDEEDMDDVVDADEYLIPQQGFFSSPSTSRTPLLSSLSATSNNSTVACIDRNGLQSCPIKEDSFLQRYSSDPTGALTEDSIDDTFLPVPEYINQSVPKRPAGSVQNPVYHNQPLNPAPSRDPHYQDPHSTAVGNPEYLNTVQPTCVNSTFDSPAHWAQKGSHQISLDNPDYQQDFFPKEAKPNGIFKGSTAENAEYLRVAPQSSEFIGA
- measurement-description: Ba/F3 cell proliferation (Cell Titer Glo), EGFR L858R
- Format: cell-based, murine
- applied-conditions: 72 hours, Table 6, read-out: L858R BaF3
measured-parameter: GI50

Fill in: GI50 of C=CC(=O)N1CC[C@H](N2Cc3cnc(Nc4cnn(CCO)c4)nc3N(C)C2=O)c2cccc(OC)c21 is ___
100 to 500 nM

Record: C/C=C(\C#N)C(=O)N1CC[C@H](N2Cc3cnc(Nc4ccc(N5CCN(C)CC5)cc4)nc3N(C)C2=O)c2ccccc21
≥ 2500 nM

Record: C=CC(=O)N1CC[C@H](N2Cc3cnc(Nc4ccc5c(c4)CCN(C)C5)nc3N(CCO)C2=O)c2cccc(C)c21
< 100 nM

###

# GI50 per entry
- assay-target: EGFR L858R/C797S Ba/F3 cells (Homo sapiens, UniProt P00533, C797S/L858R, cells depend on it)
- measurement-description: Ba/F3 cell proliferation (Cell Titer Glo), EGFR L858R/C797S
- Format: cell-based, murine
- applied-conditions: 72 hours, Table 6

A selection of reference data follows.
[
  {
    "molecule": "C=CC(=O)N1CC[C@@H](N2Cc3cnc(Nc4ccc(N5CCN(C)CC5)cc4)nc3N(C)C2=O)c2cccc(O)c21 (single isomer, unassigned) [Compound 155]",
    "endpoint-result": "100 to 500 nM"
  },
  {
    "molecule": "[2H]C1(N2Cc3cnc(Nc4cnn(CCO)c4)nc3N(C)C2=O)CCN(C(=O)C=C)c2c(OC)cccc21 (stereo not shown) [Compound 129]",
    "endpoint-result": "≥ 2500 nM"
  },
  {
    "molecule": "C=CC(=O)N1CCC(N2Cc3cnc(Nc4cccc(OC(F)F)c4)nc3N(C)C2=O)c2ccccc21 (stereo not shown) [Compound 081]",
    "endpoint-result": "< 100 nM"
  }
]

Fill in: GI50 of C=CC(=O)N1CC[C@H](N2Cc3cnc(Nc4cnn(CCO)c4)nc3N(C)C2=O)c2cccc(OC)c21 [Compound 118] is ___
500 to 2500 nM

Record: C=CC(=O)N(C)c1ccccc1CN1Cc2cnc(Nc3ccc(N4CCN(C)CC4)cc3)nc2N(C)C1=O [Compound 139]
500 to 2500 nM

Record: C=CC(=O)N1CCC(N2Cc3cnc(Nc4ccc(N5CCN(C)CC5)cc4)nc3N(C3CCOC3)C2=O)c2ccccc21 (stereo not shown) [Compound 058]
< 100 nM

Record: C=C(F)C(=O)N1CC[C@H](N2Cc3cnc(Nc4cnn(CCO)c4)nc3N(C)C2=O)c2ccccc21 [Compound 093]
< 100 nM

###

# GI50 per entry
- assay-target: EGFR mutant L858R Ba/F3 cells (Homo sapiens, UniProt P00533, L858R, cells depend on it)
- measurement-description: Ba/F3 cell proliferation (Cell Titer Glo), EGFR L858R
- Assay type: cell-based, murine
- applied-conditions: 72 hours, Table 6, read-out: L858R BaF3

A selection of reference data follows.
[
  {
    "compound": "C=CC(=O)N1CC[C@H](N2Cc3cnc(Nc4ccc(CS(=O)(=O)NC)cc4)nc3N(C)C2=O)c2cccc(C)c21",
    "GI50": "< 100 nM"
  },
  {
    "compound": "C=C(F)C(=O)N1CCC(N2Cc3cnc(Nc4ccc(N5CCN(C)CC5)cc4)nc3N(C)C2=O)c2ccccc21 (stereo not shown)",
    "GI50": "< 100 nM"
  },
  {
    "compound": "[2H]C1(N2Cc3cnc(Nc4cnn(CCO)c4)nc3N(C3CC3)C2=O)CCN(C(=O)C(=C)F)c2ccccc21 (stereo not shown)",
    "GI50": "< 100 nM"
  },
  {
    "compound": "C=CC(=O)N1c2ccccc2[C@@H](N2Cc3cnc(Nc4ccc(N5CCN(C)CC5)cc4)nc3N(C)C2=O)C[C@@H]1C",
    "GI50": "< 100 nM"
  },
  {
    "compound": "CN1CCN(c2ccc(Nc3ncc4c(n3)N(C)C(=O)N([C@H]3CCN(C(=O)/C=C/CF)c5ccccc53)C4)cc2)CC1",
    "GI50": "< 100 nM"
  }
]

Fill in: GI50 of C=CC(=O)N1CC[C@H](N2Cc3cnc(Nc4cnn(CCO)c4)nc3N(C)C2=O)[C@@H]2CCC[C@@H]21 is ___
≥ 2500 nM

Record: CN1C(=O)N([C@H]2CCN(C#N)c3ccccc32)Cc2cnc(Nc3cnn(CCO)c3)nc21
≥ 2500 nM

###

- assay-target: EGFR L858R/C797S Ba/F3 cells (Homo sapiens, UniProt P00533, C797S/L858R, cells depend on it)
- measurement-description: Ba/F3 cell proliferation (Cell Titer Glo), EGFR L858R/C797S
- Format: cell-based, murine
- applied-conditions: 72 hours, Table 6
measured-parameter: GI50

A selection of reference data follows.
[
  {
    "molecule": "C=CC(=O)N1CCC(N2Cc3cnc(Nc4ccc(N5CCN(C)CC5)cc4)nc3N(C)C2=O)c2cccc(Cl)c21 (centres unmarked)",
    "GI50": "≥ 2500 nM"
  },
  {
    "molecule": "C=CC(=O)N1CCC(N2Cc3cnc(Nc4ccc(N5CCN(C)CC5)cc4Cl)nc3N(C)C2=O)c2ccccc21 (centres unmarked)",
    "GI50": "< 100 nM"
  },
  {
    "molecule": "C=CC(=O)N1CC[C@@H](N2Cc3cnc(Nc4cnn(CCO)c4)nc3N(C)C2=O)c2cccc(OC)c21 (single isomer, unassigned)",
    "GI50": "≥ 2500 nM"
  },
  {
    "molecule": "C=C(F)C(=O)N1CC[C@H](N2Cc3cnc(Nc4cnn(CCO)c4)nc3N(CC(F)F)C2=O)c2ccccc21",
    "GI50": "< 100 nM"
  },
  {
    "molecule": "C=C(CN1CC(N2Cc3cnc(Nc4ccc(N5CCN(C)CC5)cc4)nc3N(C)C2=O)C1)C(=O)O",
    "GI50": "≥ 2500 nM"
  }
]

Fill in: GI50 of C=CC(=O)N1Cc2ccccc2C(N2Cc3cnc(Nc4ccc(N5CCN(C)CC5)cc4)nc3N(C)C2=O)C1 (centres unmarked) is ___
≥ 2500 nM

Record: C=CC(=O)N1CC[C@@H](N2Cc3cnc(Nc4ccc(N5CCN(C)CC5)cc4)nc3N(C)C2=O)c2cccc(C)c21
100 to 500 nM

Record: C=CC(=O)N1CCC(N2Cc3cnc(Nc4cnn(CCN(C)C)c4)nc3N(C)C2=O)c2ccccc21 (centres unmarked)
< 100 nM

Record: C=CC(=O)N1CC[C@H](N2Cc3cnc(Nc4ccc(N5CCN(C)CC5)cc4)nc3N(C)C2=O)c2cccc(C)c21
< 100 nM

Record: C=C(F)C(=O)N1CCC(N2Cc3cnc(Nc4cnn(CCO)c4)nc3-n3ccnc32)c2ccccc21 (centres unmarked) [001A]
≥ 2500 nM

Record: C=C(F)C(=O)N1CC[C@H](N2Cc3cnc(Nc4cnn(CCO)c4)nc3N(C3CCOC3)C2=O)c2ccccc21 (some centres unmarked)
< 100 nM

Record: C=CC(=O)N1CCC(N2Cc3cnc(Nc4cnn(C)c4)nc3N(C)C2=O)c2ccccc21 (centres unmarked)
< 100 nM

Record: C=CC(=O)N1CCC(N2Cc3cnc(Nc4cc(F)c(N5CCN(C)CC5)c(F)c4)nc3N(C)C2=O)c2ccccc21 (centres unmarked)
< 100 nM

Record: C=CC(=O)N1CC[C@H](N2Cc3cnc(Nc4ccc(N5CCN(C)CC5)cc4)nc3N(C)C2=O)C[C@@H]1CO
≥ 2500 nM
